Reported log10 of Ki is given for each of the following compounds.
MEASUREMENT TARGET: glucocorticoid receptor (Homo sapiens)
Construct: endogenous in cells
Sequence (P04150 1-777): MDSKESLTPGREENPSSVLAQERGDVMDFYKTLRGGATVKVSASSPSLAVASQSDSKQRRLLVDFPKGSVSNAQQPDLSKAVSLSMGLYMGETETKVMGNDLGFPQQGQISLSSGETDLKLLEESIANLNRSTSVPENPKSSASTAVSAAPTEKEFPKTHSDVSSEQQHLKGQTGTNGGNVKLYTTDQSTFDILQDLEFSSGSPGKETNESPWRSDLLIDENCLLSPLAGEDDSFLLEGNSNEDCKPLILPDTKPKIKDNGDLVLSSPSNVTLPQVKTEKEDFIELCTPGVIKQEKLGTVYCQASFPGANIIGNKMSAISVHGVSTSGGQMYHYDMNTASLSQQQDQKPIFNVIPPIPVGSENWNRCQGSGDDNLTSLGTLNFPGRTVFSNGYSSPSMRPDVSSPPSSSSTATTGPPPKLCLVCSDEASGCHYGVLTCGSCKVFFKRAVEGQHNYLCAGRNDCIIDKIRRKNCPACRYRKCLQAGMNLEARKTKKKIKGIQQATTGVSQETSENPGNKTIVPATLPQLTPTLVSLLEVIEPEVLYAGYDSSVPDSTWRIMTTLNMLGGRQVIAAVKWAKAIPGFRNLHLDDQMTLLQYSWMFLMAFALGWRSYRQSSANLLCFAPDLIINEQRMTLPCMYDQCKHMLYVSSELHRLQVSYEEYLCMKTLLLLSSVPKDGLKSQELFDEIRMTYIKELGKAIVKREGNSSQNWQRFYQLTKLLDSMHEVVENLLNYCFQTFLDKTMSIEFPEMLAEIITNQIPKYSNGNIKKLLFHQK
TEST DESCRIPTION: Ligand binding assay (GR BIND)
Protocol: • Materials: • Binding Buffer: TEGM (10 mM Tris-HCl, 1 mM EDTA, 10% glycerol, 1 mM beta-mecaptoethanol, 10 mM Sodium Molybdate, pH 7.2) • 50% HAP Slurry: Calbiochem Hydroxylapatite, Fast Flow, in 10 mM Tris, pH 8.0 and 1 mM EDTA. • Wash Buffer: 40 mM Tris, pH7.5, 100 mM KCl, 1 mM EDTA and 1 mM EGTA. […] 25 μL of ^3H-DEX (6 nM) trace and 25 μL compound solution are first mixed together, followed by addition of 50 μL receptor solution. […] IC54s are calculated using DEX as a reference.
Values below are the log10 of the recorded Ki, with nM as the unit.

COMPOUND | log10 of Ki
C[C@]12Cc3cnn(-c4ccc(F)cc4)c3C=C1CC[C@@H]2CN(CCc1ccccc1O)S(=O)(=O)Cc1cccc(C(F)(F)F)c1 [Example 122] | 0.46
C[C@]12Cc3cnn(-c4ccc(F)cc4)c3C=C1CC[C@@H]2CN(CC(OS(=O)(=O)CC(F)(F)F)c1ccccn1)S(=O)(=O)CC(F)(F)F (stereo partly shown) [Example 145] | 0.00
C[C@]12Cc3cnn(-c4ccc(F)cc4)c3C=C1CC[C@@H]2CN(CC#N)S(=O)(=O)c1ccccc1F [Example 43] | 0.34
Cc1nn(C)c(Cl)c1S(=O)(=O)N(CC1CC1)C[C@H]1CCC2=Cc3c(cnn3-c3ccc(F)cc3)C[C@@]21C [Example 7] | -0.40
C[C@]12Cc3cnn(-c4ccc(F)cc4)c3C=C1CC[C@@H]2CN(CCO)S(=O)(=O)c1cc(Cl)c(Cl)s1 [Example 58] | 0.36

q: Entry under review: C[C@]12Cc3cnn(-c4ccc(F)cc4)c3C=C1CC[C@@H]2CN(CC1CCCO1)S(=O)(=O)Cc1cccc(C(F)(F)F)c1 (stereo partly shown) [Example 110] . Reported log10 of Ki?
a: 0.15

q: Entry under review: COC(=O)c1cc(Cl)ccc1CCN(C[C@H]1CCC2=Cc3c(cnn3-c3ccc(F)cc3)C[C@@]21C)S(=O)(=O)CC(F)(F)F [Example 160] . Reported log10 of Ki?
a: 0.53

q: Entry under review: COC(=O)c1sccc1S(=O)(=O)N(CC#N)C[C@H]1CCC2=Cc3c(cnn3-c3ccc(F)cc3)C[C@@]21C [Example 34] . Reported log10 of Ki?
a: 0.23

====

Reported Emax is given for each of the following compounds.
MEASUREMENT TARGET: human GR (Homo sapiens, UniProt P04150)
Sequence (P04150 1-777): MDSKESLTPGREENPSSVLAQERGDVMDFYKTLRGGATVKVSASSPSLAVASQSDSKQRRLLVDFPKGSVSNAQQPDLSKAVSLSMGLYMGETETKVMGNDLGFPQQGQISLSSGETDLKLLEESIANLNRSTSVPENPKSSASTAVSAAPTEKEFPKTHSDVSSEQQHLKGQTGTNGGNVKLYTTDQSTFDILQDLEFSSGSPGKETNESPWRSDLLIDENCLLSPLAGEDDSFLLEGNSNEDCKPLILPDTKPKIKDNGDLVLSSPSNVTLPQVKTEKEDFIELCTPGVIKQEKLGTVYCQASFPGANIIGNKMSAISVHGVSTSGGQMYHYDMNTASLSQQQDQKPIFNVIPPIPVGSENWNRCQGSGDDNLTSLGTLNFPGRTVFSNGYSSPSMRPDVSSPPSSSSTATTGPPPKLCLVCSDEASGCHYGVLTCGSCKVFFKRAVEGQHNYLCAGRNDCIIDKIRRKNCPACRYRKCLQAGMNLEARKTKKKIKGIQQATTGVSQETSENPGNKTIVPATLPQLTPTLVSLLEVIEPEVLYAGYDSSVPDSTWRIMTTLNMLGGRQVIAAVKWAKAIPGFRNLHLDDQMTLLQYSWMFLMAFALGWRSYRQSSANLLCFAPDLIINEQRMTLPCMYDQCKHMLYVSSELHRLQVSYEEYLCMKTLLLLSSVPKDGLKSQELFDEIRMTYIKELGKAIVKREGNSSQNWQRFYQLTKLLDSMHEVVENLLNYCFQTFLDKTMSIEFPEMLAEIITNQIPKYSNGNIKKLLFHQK
TEST DESCRIPTION: Trans-Activation Modulation of Glucocorticoid Receptor (GRAMMER), MMTV-LUC reporter, agonist mode
Assay type: cell-based
Set-up: endogenous in cells
CONDITION PARAMETERS: A549, A549 cells; maximum activity; read-out: Transactivation A549 Cells GRAMMER Emax
Report only the number, with the unit % understood.

q: Entry under review: C[C@]12Cc3cnn(-c4ccc(F)cc4)c3C=C1CC[C@@H]2CN(CCc1ccccc1F)S(=O)(=O)CCN1C(=O)c2ccccc2C1=O . Reported Emax?
a: 15.9

q: Entry under review: C[C@]12Cc3cnn(-c4ccc(F)cc4)c3C=C1CC[C@@H]2CN(CCc1ccccc1F)S(=O)(=O)Cc1cccc(Cl)c1 . Reported Emax?
a: 82.8

q: Entry under review: C[C@]12Cc3cnn(-c4ccc(F)cc4)c3C=C1CC[C@@H]2CN(CC1CCCO1)S(=O)(=O)Cc1cccc(C(F)(F)F)c1 (stereo partly shown) . Reported Emax?
a: 4.9

q: Entry under review: C[C@]12Cc3cnn(-c4ccc(F)cc4)c3C=C1CC[C@@H]2CN(CC#N)S(=O)(=O)Cc1ccccc1 . Reported Emax?
a: 8.8

====

Reported EC50 is given for each of the following compounds.
MEASUREMENT TARGET: UniProt P04150
TEST DESCRIPTION: Trans-Activation Modulation of Glucocorticoid Receptor (GRAMMER), MMTV-LUC reporter, agonist mode
Type: cell-based
Parameters: endogenous in cells
CONDITION PARAMETERS: A549 cells; inflection point; read-out: Transactivation A549 Cells GRAMMER IP
Report only the number, with the unit nM understood.

Use the examples below as a reference point.
COMPOUND | EC50 [nM]
C[C@]12Cc3cnn(-c4ccc(F)cc4)c3C=C1CC[C@@H]2CN(CC#N)S(=O)(=O)c1ccc(Cl)c(C(F)(F)F)c1 | 994
C[C@]12Cc3cnn(-c4ccc(F)cc4)c3C=C1CC[C@@H]2CN(CCO)S(=O)(=O)c1ccc(Oc2ccccn2)cc1 | 1030
COCCN(C[C@H]1CCC2=Cc3c(cnn3-c3ccc(F)cc3)C[C@@]21C)S(=O)(=O)c1cn(C)nc1C(F)(F)F | 398

API: the following record is the query input.
q: Hello, I am looking for reported EC50 with UniProt P04150 for CCCS(=O)(=O)N(CC(O)C(F)F)C[C@H]1CCC2=Cc3c(cnn3-c3ccc(F)cc3)C[C@@]21C (stereo partly shown) . Could you help?
a: 989

====

MEASUREMENT TARGET: human GR (Homo sapiens)
TEST DESCRIPTION: Transrepression Assay (GITAR), TNFα-β-lactamase reporter in U937 cells
Type: cell-based
Design: U937 cells contain an endogenous glucocorticoid receptor (GR); endogenous in cells; host or cells: U937 cells stably transfected with the TNF-alpha promoter/beta-lactamase reporter
CONDITION PARAMETERS: U-937, U937 cells; maximum activity; read-out: Transrepression U937 Cells GITAR Emax
Reported Emax is given for each of the following molecules.

Use the examples below as a reference point.
MOLECULE | OBSERVED VALUE
CCCS(=O)(=O)N(CCOC)C[C@H]1CCC2=Cc3c(cnn3-c3ccc(F)cc3)C[C@@]21C [Example 95] | 73.1%
C[C@]12Cc3cnn(-c4ccc(F)cc4)c3C=C1CC[C@@H]2CN(CCc1ccccn1)S(=O)(=O)Cc1ccccn1 [Example 165] | 61.1%
C[C@]12Cc3cnn(-c4ccc(F)cc4)c3C=C1CC[C@@H]2CN(CC1CC1)S(=O)(=O)c1cc(C(F)(F)F)ccc1Cl [Example 5] | 19.2%
CCN(C[C@H]1CCC2=Cc3c(cnn3-c3ccc(F)cc3)C[C@@]21C)S(=O)(=O)CC(F)(F)F [Example 179] | 96.5%
C[C@]12Cc3cnn(-c4ccc(F)cc4)c3C=C1CC[C@@H]2CN(CC=O)S(=O)(=O)c1ccccc1F [Example 158] | 77.8%

q: Entry under review: C[C@]12Cc3cnn(-c4ccc(F)cc4)c3C=C1CC[C@@H]2CN(CCO)S(=O)(=O)c1ccc(-c2cnco2)s1 [Example 57] . Reported Emax?
a: 23.8%

q: Entry under review: C[C@]12Cc3cnn(-c4ccc(F)cc4)c3C=C1CC[C@@H]2CN(CC#N)S(=O)(=O)c1ccc(F)cc1 [Example 46] . Reported Emax?
a: 85.5%

q: Entry under review: C[C@]12Cc3cnn(-c4ccc(F)cc4)c3C=C1CC[C@@H]2CN(CCc1ccc(O)cc1)S(=O)(=O)CC(F)(F)F [Example 130] . Reported Emax?
a: 79.7%

q: Entry under review: C[C@]12Cc3cnn(-c4ccc(F)cc4)c3C=C1CC[C@@H]2CN(CCO)S(=O)(=O)c1ccccc1Cl [Example 81] . Reported Emax?
a: 76.7%

q: Entry under review: COc1cccc(CCN(C[C@H]2CCC3=Cc4c(cnn4-c4ccc(F)cc4)C[C@@]32C)S(=O)(=O)CC(F)(F)F)c1 [Example 126] . Reported Emax?
a: 90%

q: Entry under review: CCCS(=O)(=O)N(CCc1ccccn1)C[C@H]1CCC2=Cc3c(cnn3-c3ccc(F)cc3)C[C@@]21C [Example 151] . Reported Emax?
a: 83.3%

q: Entry under review: C[C@@H](CN(C[C@H]1CCC2=Cc3c(cnn3-c3ccc(F)cc3)C[C@@]21C)S(=O)(=O)CC(F)(F)F)OS(=O)(=O)CC(F)(F)F [Example 114] . Reported Emax?
a: 98.5%

q: Entry under review: C[C@]12Cc3cnn(-c4ccc(F)cc4)c3C=C1CC[C@@H]2CN(CCO)S(=O)(=O)c1ccc(C#N)cc1 [Example 62] . Reported Emax?
a: 68.5%

q: Entry under review: C[C@H](O)CN(C[C@H]1CCC2=Cc3c(cnn3-c3ccc(F)cc3)C[C@@]21C)S(=O)(=O)c1ccc(F)c(Cl)c1 [Example 112] . Reported Emax?
a: 65.7%

q: Entry under review: Cc1oncc1S(=O)(=O)N(CC#N)C[C@H]1CCC2=Cc3c(cnn3-c3ccc(F)cc3)C[C@@]21C [Example 23] . Reported Emax?
a: 34%

q: Entry under review: C[C@]12Cc3cnn(-c4ccc(F)cc4)c3C=C1CC[C@@H]2CN(CCc1ccccc1F)S(=O)(=O)Cc1ccc(Cl)c(Cl)c1 [Example 111] . Reported Emax?
a: 75.7%

q: Entry under review: CCS(=O)(=O)N(CC1CCCO1)C[C@H]1CCC2=Cc3c(cnn3-c3ccc(F)cc3)C[C@@]21C (some centres unmarked) [Example 174] . Reported Emax?
a: 85.3%
